- system: T1, human LAIR1 extracellular domain (ECD) protein with 6 HIS tag at the C-terminus (human, UniProt Q6GTX8 22-165)
- T1 construct: Produced recombinantly in HEK293 cells; the whole entry is named here; also called LAIR1 ECD; LAIR1-ECD
- T1 chain: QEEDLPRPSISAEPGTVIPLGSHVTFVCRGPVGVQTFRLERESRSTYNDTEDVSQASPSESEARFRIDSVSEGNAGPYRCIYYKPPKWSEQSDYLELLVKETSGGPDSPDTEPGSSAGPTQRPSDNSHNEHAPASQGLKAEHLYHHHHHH
- assaySummary: ELISA, LAIR1 ECD coated
Listed binders paired with reported EC50 (read off the curve)

{"binder": "LA-199 (antibody, V domains shown, Rabbit monoclonal IgG) VH: EQSVEESGGRLVTPGTPLTLTCTASGFSLSSYAMIWVRQAPGEGLEWIGDIYAGGGATYYASWAKGRFTISKTSTTVDLKITSPTTEDTATYFCARAYGSGYDLWGPGTLVTVSS VL: ELDLTQTPASVEVAVGGTVTIKCQASQSISSYLSWYQQKPGQPPKLLIYYASTMASGVPSRFSGSGSGTQFTLTISDLECADAATYYCQQGDSRSNVDNIFGGGTEVVVK", "EC50 (read off the curve)": "~20 ng/mL"}
{"binder": "LA-87 (antibody, V domains shown, Rabbit monoclonal IgG; also called mAb LA-87) VH: QSVKESGGRLVTPGGSLTLTCTVSGFSLSNYNIQWVRQAPGKGLEWIGFISPAGNGYYASWAKGRFTISKASSTTVELKMTSLTASDTATYFCARHWDLWGPGTLVTISS VL: ELVLTQTASSVSAAVGGTVTISCQSSQSVYSNYLSWFQQKPGQPPKELVYWTSTLQSGVPSRFSGSGSGTQFTLTISDLECDDAATYYCLGGYSGWFYAFGGGTEVVVK", "EC50 (read off the curve)": "~10 ng/mL"}
{"binder": "LA-101 (antibody, V domains shown, Rabbit monoclonal IgG) VH: EQSVEESGGRLVTPGTPLTLTCTVSGFSLSSFHMCWVRQAPGKGLEYIGIIYPGGSTGYANWAKGRFTVSKASNTVDLKISSPTTEDTATYFCARVNYGDWINGMDLWGPGTLVTISS VL: ELDMTQTPASVSEPVGGTVTIKCQASQSIGSNLAWYQQKPGQRPKLLIYKASTLASGVPSRFKGSGSGTDFTLTISDLECADAASYYCQQAYWSGNVDNVFGGGTEVEIK", "EC50 (read off the curve)": "~8 ng/mL"}
{"binder": "LA-155 (antibody, V domains shown, Rabbit monoclonal IgG) VH: EQSLEESGGDLVKPEGSLTLTCTASGFSFNSNYWICWVRQTPGKGLEWIGCIYSGSSGDTYYASWAKGRFTISKTSSTTVTLQMTSLTAADTATYFCARGADYVYWSYGLWGPGTLVTISS VL: ELVLTQTPASVSAAVGGTLTIKCQASETIGTNLAWYQQKPGQPPKLLIYLASYLASGVSSRFKGSRSGTEFTLTISDLDCDDAATYYCQSTHFGNGHTFGGGTEVVVK", "EC50 (read off the curve)": "~7 ng/mL"}

Here is another binder to look at.
Entry LA-192 (antibody, V domains shown, Rabbit monoclonal IgG; Called an agonist antibody) VH: EQSLEESGGRLVTPGTPLTLTCTASGFSLSSYYMTWVRQAPGKGLEWIGYMHTGGGVVYASWATGRFTISRTSTTVDLKITSPTTEDTATYFCARSHAGYSTINRLDLWGVGTLVTISS VL: ELDLTQTPSSVSAAVGGTVTISCQSSPSVYTNNLSWFQQKPGQPPKLLIYDASKLESGVPSRFRGSGSGTQFTLTISDVQCDDAATYYCAGAYLSDSDTTFGGGTELEIK : reported EC50 (read off the curve) = ? ~20 ng/mL
